List of switch fluorescence ratio values.
tested on: ATP; assay: switch fluorescence ratio, 500 uM ATP over buffer (Cy3 cluster intensity, sum of 5 cycles each) (fold (ratio)); higher = stronger signal-on switching upon ATP binding; sequences stand for … in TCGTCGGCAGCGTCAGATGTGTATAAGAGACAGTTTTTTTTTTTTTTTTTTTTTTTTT…TC; conditions: aptamer strand: ATP DNA aptamer (quencher-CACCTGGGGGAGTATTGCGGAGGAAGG + anchor), 100 nM annealed; ATP concentration: 500 uM;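 further: ATP exposure 15 min at 22 °C before imaging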

| SEQ | switch fluorescence ratio |
| --- | --- |
| CGCAGAGCGA | 1.02 |
| ACGCACGATT | 1.37 |
| TTGGTTTATC | 1 |
| GGCCGCCGTC | 1 |
| GGTCCACCGT | 0.989 |
| ATGGGTGCCT | 1.03 |
| TTACGTGTGA | 1.05 |
| AGGGGTAGCG | 0.954 |
| TTGCACGTAA | 1.66 |
| TTGGGGTATC | 1.01 |
| AGCCATGGCT | 0.993 |
| TTGGCCGCAC | 2.67 |
| GAACTAGGTG | 1.44 |
| CCACCTGGCG | 1.29 |
| AGAAGTACGT | 1.04 |
| GGAGGATGAG | 1.01 |
| GGCGGCAGGG | 1 |
| CTAGGGGCGT | 0.979 |
| AAGAACTATG | 1.02 |
| GAGAAGTTAG | 1.02 |
| TTGGAGGAAA | 1.09 |
| AAGTGTTTT | 1.02 |
| GGGGAAGAGT | 0.996 |
| GTTGGTCTGG | 0.943 |
| GGGGGATTGT | 1.02 |
| GTGTAAAGTG | 0.949 |
| GAATTGAGCA | 0.996 |
| TTTATGAGTG | 0.997 |
| GGTATGGCGC | 0.986 |
| GGCGGTATAG | 1.02 |
| GGTAGTTAGG | 1.03 |
| TAGGGCTGGC | 1 |
| CGCTTTAGTT | 0.986 |
| GGAAAAAGGG | 1 |
| TTAATCAGGT | 1.01 |
| ACAAGTATGT | 1.02 |
| TGCTGAAGGA | 0.974 |
| TGATAGTTGA | 1.01 |
| GGGGGGGTTA | 0.992 |
| GCTATTGTTG | 1.03 |
| ATGGGCTTAC | 1.23 |
| TAGGGTAGTT | 1.02 |
| GATGATTTGG | 1.02 |
| AAAACAAGGG | 1.01 |
| GAGGGTAAGA | 1.02 |
| TTGTAGGATA | 0.994 |
| TAGAATTCTT | 0.997 |
| AGTAATAGGA | 1.03 |
| CATTGCGATC | 2.08 |
| ACCGTTTCGT | 0.94 |
| GGATGATTTG | 0.968 |
| TTGAGACGGT | 1 |
| GGGTATTGCA | 0.996 |
| CGGTTACGAG | 0.995 |
| AGTTACGAAA | 1.11 |
| AAACGGGTGC | 1.27 |
| TTTTGAGATG | 0.999 |
| ATTGTGTCAC | 1 |
| GATAATAGTG | 1.08 |
| TTTTTTAAAA | 0.995 |
| TGATAGGGTC | 1.06 |
| CGACGAACTT | 1.24 |
| AGGGGTAAAT | 1.02 |
| TGCGGTTGGG | 1.02 |
| ATTAGTCTGC | 0.996 |
| AAGGGGGATT | 1.01 |
| GATTTTCGAG | 0.994 |
| TAGGGTGTCA | 1.03 |
| TTAAGCTCGG | 0.989 |
| TGAGGGTTTA | 0.991 |
| TTGCTTGTAT | 0.999 |
| AAGGCTGGTG | 1.02 |
